- METHOD DESCRIPTION: qHTS of pediatric cancer cell lines to identify multiple opportunities for drug repurposing: Primary screen for LAN-5 cells (AID 1347100); further: potency means the concentration at half of the fitted maximal effect
- RUN CONDITIONS: LAN-5 neuroblastoma viability, CellTiter-Glo luminescence, 48 h; series mostly up to 46 µM
Results filed as inconclusive are left out. Calls of active or inactive are those of the source. The call rests on the fitted dose curve; in most records, active means well fitted cell-killing curve with a large enough effect; inconclusive means small, poorly fitted or top-dose-only effect; inactive means no such curve, though single readings can be large or run the other way.
READOUT: Potency

INSERT INTO measurements (item_smiles, readout, result) VALUES
  ('CCNC(=O)c1cc2c(-c3cc(OCCN4CCCC4)c(Cl)cc3Cl)nc(N)nc2s1', 'Potency', '1480 nM (active)'),
  ('NC(=O)Nc1cc(-c2ccc(CN3CCOCC3)cc2)sc1C(N)=O', 'Potency', '33.2 nM (active)'),
  ('Cc1cnc(Nc2ccc(CN3CCOCC3)cc2)nc1Nc1cccc(S(=O)(=O)NC(C)(C)C)c1', 'Potency', '1320 nM (active)'),
  ('C[C@H]1C[C@H]2[C@@H]3CCC4=CC(=O)C=C[C@]4(C)[C@@H]3C(=O)C[C@]2(C)[C@@]1(O)C(=O)CO', 'Potency', 'inactive'),
  ('COC(=O)C=CC(=O)OC', 'Potency', 'inactive'),
  ('COC(=O)[C@@H]1CC2=CC(=O)CC[C@]2(C)[C@@]23O[C@@H]2C[C@@]2(C)[C@H](CC[C@@]24CCC(=O)O4)[C@@H]13', 'Potency', 'inactive'),
  ('CC1(C)O[C@@H]2C[C@H]3[C@@H]4CCC5=CC(=O)C=C[C@]5(C)[C@@H]4[C@@H](O)C[C@]3(C)[C@]2(C(=O)CO)O1', 'Potency', 'inactive'),
  ('c1ccc2c(Oc3nc(Nc4ccc(N5CCOCC5)cc4)c4ncn(C5CCCCC5)c4n3)cccc2c1', 'Potency', 'inactive');

Short answer for Cn1cc(-c2cnn3c(N)c(Br)c([C@H]4CCCNC4)nc23)cn1 : Potency was 743 nM (active)

CCN(C(=O)c1c(O)c2c(Cl)cccc2n(C)c1=O)c1ccccc1 has a reported Potency of inactive

The compound listed as CC(=O)NCC(=O)N1[C@H]2CC[C@H]1c1cc(Nc3ncc(C(F)(F)F)c(NC4CCC4)n3)ccc12 shows Potency equal to 33.2 nM (active)

Looking up C=CC(=O)N1CCc2ccc(-n3c(=O)ccc4cnc5ccc(-c6cnn(C)c6)cc5c43)cc21 , I see its Potency listed as 2350 nM (active)

----------
- METHOD DESCRIPTION: Quantitative High-Throughput drug screen in 47 multiple myeloma cell lines against the NCATS MIPE library collection: H1112_PLB cell viability assay (AID 1918967; further: nearly all actives have a fitted effect of over 30% in size)
- RUN CONDITIONS: H1112 myeloma cells viability, ATP luminescence, 48 h; series mostly up to 45.8 µM
Results filed as inconclusive are left out. Activity calls are given as the source filed them. The call rests on the fitted dose curve; in most records, active means well fitted cell-killing curve with a large enough effect; inconclusive means small, poorly fitted or top-dose-only effect, or effect the other way; inactive means no such curve, though single readings can be large or run the other way. Starred links: 1 amine or outer side, 2 acyl side, 3 side chain; linkers in the order of their positions; H or OH if unused. Positions of bridges follow the written chain, without caps; N, C: chain ends. Non-standard residues stand in square brackets, D forms with d. Residues, ends and D or L forms follow the SMILES beside them. Chains are numbered I, II in the order given. Actinocin(9to1) = Cc1c2oc3c(C)ccc(C(=O)[*:1])c3nc-2c(C(=O)[*:2])c(N)c1=O; NMeV = CN[CH](C(=O)O)C(C)C; Sar = CNCC(=O)O
In this exercise, the only acceptable responses are t for active, f for inactive

INPUT: GET /call?item= C[C@@H](Cc1cc2c(c(C(N)=O)c1)N(CCCO)CC2)NCCOc1ccccc1OCC(F)(F)F returns the recorded outcome of this test.
OUTPUT: f

INPUT: Check the results log: what was the call for CCCCCCCCCCCCc1ccc(S(=O)(=O)Nc2nncs2)cc1 ?
OUTPUT: f

INPUT: Give the logged outcome of this assay for the following compound: CC(=O)OCC(=O)[C@@]1(O)CC[C@H]2[C@@H]3CCC4=CC(=O)CC[C@]4(C)[C@@H]3C(=O)C[C@@]21C
OUTPUT: f

INPUT: What did this assay record as the result for CCc1cc(C(C)=NOCc2ccc(C3CCCCC3)c(C(F)(F)F)c2)ccc1CN1CC(C(=O)O)C1 ?
OUTPUT: t

INPUT: Hey, what did the test say about C[C@]12CCC(=O)C=C1[C@@H]1CC1[C@H]1[C@H]3[C@@H]4C[C@H]4[C@@]4(CCC(=O)O4)[C@@]3(C)CC[C@H]12 (some centres undefined) ?
OUTPUT: f

INPUT: Hello, I am checking results. What call was entered for CC(C)n1cnc2c(NCCc3ccc(O)cc3)nc(-c3csc4ccccc34)nc21 ?
OUTPUT: t

INPUT: Would you mind telling me which call this test gave CC(=O)NCC(=O)N1[C@H]2CC[C@H]1c1cc(Nc3ncc(C(F)(F)F)c(NC4CCC4)n3)ccc12 ?
OUTPUT: t

INPUT: # lookup: test call for COc1cc(OC)c(C=CS(=O)(=O)Cc2ccc(OC)c(NCC(=O)O)c2)c(OC)c1
OUTPUT: t

INPUT: Hey, what did the test say about C[C@@H]1C(=O)O[C@H]2CC34[C@H]5C[C@@H](C(C)(C)C)C36[C@H](OC(=O)[C@@H]6O)O[C@@]4(C(=O)O5)[C@]21O (some centres undefined) ?
OUTPUT: f

INPUT: Short answer needed: outcome of this test for C=C(C)[C@@H]1CC[C@]2(C)CC[C@]3(C)[C@H](CC[C@@H]4[C@@]5(C)CC[C@H](O)C(C)(C)[C@H]5CC[C@]43C)[C@@H]12 ?
OUTPUT: f

INPUT: Would you mind telling me which call this test gave COC1=C(OC)C(=O)C(CC=C(C)CCC=C(C)CCC=C(C)CCC=C(C)CCC=C(C)CCC=C(C)CCC=C(C)CCC=C(C)CCC=C(C)CCC=C(C)C)=C(C)C1=O ?
OUTPUT: f

INPUT: Which outcome did this test record for the compound CC(C)C[C@H](NC(=O)[C@@H](NC(=O)c1cccc(-c2ccccc2)n1)[C@@H](C)O)B(O)O ?
OUTPUT: t

INPUT: How did this test come out for Cc1c2oc3c(C)ccc(C(=O)NC4C(=O)NC(C(C)C)C(=O)N5CCCC5C(=O)N(C)CC(=O)N(C)C(C(C)C)C(=O)OC4C)c3nc-2c(C(=O)NC2C(=O)NC(C(C)C)C(=O)N3CCCC3C(=O)N(C)CC(=O)N(C)C(C(C)C)C(=O)OC2C)c(N)c1=O (centres undefined) (I: TVP[Sar][NMeV] / II: TVP[Sar][NMeV]; ester I:1-I:C, II:1-II:C; linker I:N-II:N via Actinocin(9to1); configuration not given here) ?
OUTPUT: f

INPUT: Returns: the outcome recorded for Cc1ccc(O)c(C(CCN(C(C)C)C(C)C)c2ccccc2)c1 (centres undefined) in this assay.
OUTPUT: f

INPUT: Which outcome was entered for the compound COc1ccc(Nc2nccc(NCCO)n2)cc1 in this test?
OUTPUT: f

INPUT: Hello, I am checking results. What call was entered for COc1ccc2cc([S+]([O-])Cc3ncc(C)c(OC)c3C)nc2c1 ?
OUTPUT: f

INPUT: What did this assay record as the result for COC[C@H](NC(=O)c1cnc(C)s1)C(=O)N[C@@H](COC)C(=O)N[C@@H](Cc1ccccc1)C(=O)[C@@]1(C)CO1 ?
OUTPUT: t

INPUT: Hey, what did the test say about COc1ccc([C@@H]2CNC(=O)C2)cc1OC1CCCC1 ?
OUTPUT: t

INPUT: Write down the call the test reported for this compound. Item: O=[N+]([O-])c1cn2c(n1)OC[C@@H](OCc1ccc(OC(F)(F)F)cc1)C2
OUTPUT: f

INPUT: Given Nc1nc2c(c(=O)[nH]1)N(C=O)[C@H](CNc1ccc(C(=O)N[C@@H](CCC(=O)O)C(=O)O)cc1)CN2 , state the outcome it received in this test.
OUTPUT: f

INPUT: Query: recorded result category for C[C@@H]1CC[C@@]2(OC1)OC1CC3C4CC=C5CC(O)CCC5(C)C4CCC3(C)C1[C@@H]2C (some centres undefined) in this test
OUTPUT: f

INPUT: Outcome? Cc1noc(-c2ccc(CSCCC(=O)O)cc2)c1NC(=O)OC(C)c1ccccc1Cl (centres undefined)
OUTPUT: f

INPUT: Test call, this compound: COc1cc(OC)cc(-c2ccc3ncc4ccc(=O)n(-c5ccc(N6CCNCC6)c(C(F)(F)F)c5)c4c3c2)c1
OUTPUT: t

INPUT: Per the records of this test, what outcome belongs to CCOc1cc2c(c(F)c1OCC)C(=N)N(CC(=O)c1cc(N3CCOCC3)c(OC)c(C(C)(C)C)c1)C2 ?
OUTPUT: t

INPUT: Field: outcome | Entry: CCc1ccc(C(=O)Nc2cc(CN3CCN(C)CC3)cc(C(F)(F)F)c2)cc1C#Cc1cnc2ccnn2c1
OUTPUT: t

INPUT: Test call, this compound: CC[C@H]1OC(=O)[C@H](C)[C@@H](O[C@H]2C[C@@](C)(OC)[C@@H](O)[C@H](C)O2)[C@H](C)[C@@H](O[C@@H]2O[C@H](C)C[C@H](N(C)C)[C@@H]2O)[C@](C)(OC)C[C@@H](C)C(=O)[C@H](C)[C@@H](O)[C@]1(C)O
OUTPUT: f

INPUT: // return assay outcome for O=C(CCCCCCC(=O)Nc1cccnc1)NO
OUTPUT: t

INPUT: I would be grateful if you could indicate the recorded call for O=C(C=Cc1ccc(CN(CCO)CCc2c[nH]c3ccccc23)cc1)NO .
OUTPUT: t

INPUT: Short answer needed: outcome of this test for COc1cc(C)c(C=CC(C)=CC=CC(C)=CC(=O)O)c(C)c1C ?
OUTPUT: f

INPUT: What outcome does the record of this test show for CCNC(=O)c1cc2c(-c3cc(OCCN4CCCC4)c(Cl)cc3Cl)nc(N)nc2s1 ?
OUTPUT: t

INPUT: Hey, what did the test say about NC(=O)c1cccc(-c2cccc(OC(=O)NC3CCCCC3)c2)c1 ?
OUTPUT: f

INPUT: Each compound tested received a call. Report the one for COc1ccc(C(C)=O)c(O)c1 .
OUTPUT: f

INPUT: Query: recorded result category for CN(C)c1ccc2cc(C(=O)N[C@@H](CCCN=C(N)CCl)C(=O)NCc3ccccc3)ccc2c1 in this test
OUTPUT: t

INPUT: # fetch the recorded call for Cc1cc(-c2nnc3n2CCCCC3)c(C)n1-c1ccccc1 here
OUTPUT: f
